Target: FXR (Homo sapiens)
Construct: using a full length FXR on a natural response element; expressed in transfected cells
Sequence (Q96RI1 1-486): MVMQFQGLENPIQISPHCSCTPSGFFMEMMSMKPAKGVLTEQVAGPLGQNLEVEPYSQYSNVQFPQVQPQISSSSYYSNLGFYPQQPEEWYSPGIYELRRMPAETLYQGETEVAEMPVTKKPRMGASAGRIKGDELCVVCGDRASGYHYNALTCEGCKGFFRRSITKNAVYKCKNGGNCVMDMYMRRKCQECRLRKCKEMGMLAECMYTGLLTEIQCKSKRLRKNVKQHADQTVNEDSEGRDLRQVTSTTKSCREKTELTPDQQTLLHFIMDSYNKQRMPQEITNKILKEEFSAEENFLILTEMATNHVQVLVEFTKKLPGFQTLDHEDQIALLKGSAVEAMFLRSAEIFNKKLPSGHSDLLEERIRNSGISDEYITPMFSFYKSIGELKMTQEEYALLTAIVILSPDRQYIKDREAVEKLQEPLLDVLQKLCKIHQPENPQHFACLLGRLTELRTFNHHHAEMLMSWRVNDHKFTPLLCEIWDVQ
Assay: cell-based FXR transcription assay, FXR responsive promoter linked to luciferase reporter
Settings: cell-based FXR reporter assay; footnote a not given
Catalogue of compounds with associated RE^a

The compound COC(=O)/C=C/c1cccc(N(Cc2ccc(/C=C/c3ccc(C)cc3)cc2)C(=O)NC(C)C)c1 showed RE^a equal to 0.10
